Neu listing for selected compounds.
species on record: Rattus norvegicus; experiment: Open TG-GATES - Regimen: Daily Repeat; assay type: toxicity, organism-based, Sprague-Dawley; set-up: regimen Daily Repeat, gender Male, age 6 weeks; settings: in vivo, po, 0 mg/kg, […], tissue Blood, route gavage, dose level Control, time 28 day
Report the value in % with no unit label.

Before answering, review these 3 worked examples.
O=P1(N(CCCl)CCCl)NCCCO1 (centres undefined) [CYCLOPHOSPHAMIDE ANHYDROUS] = 13.6
Cc1cccc(Nc2cc(Cl)nc(SCC(=O)O)n2)c1C = 20.6
Cn1cnc([N+](=O)[O-])c1Sc1ncnc2nc[nH]c12 = 12

Entry under review: CS(=O)(=O)Nc1ccc([N+](=O)[O-])cc1Oc1ccccc1 [NIMESULIDE] . Reported Neu?
12.4

Quick check: Neu of COc1ccc(O)c(C(C)(C)C)c1.COc1ccc(O)cc1C(C)(C)C [BUTYLATED HYDROXYANISOLE] ?
18.2

State the recorded Neu for this entry: C=CCO
14.4

// returns reported Neu for input Cc1cnc(NC(=O)C2=C(O)c3ccccc3S(=O)(=O)N2C)s1
9

Entry COc1ccc(Cl)cc1C(=O)NCCc1ccc(S(=O)(=O)NC(=O)NC2CCCCC2)cc1 [GLYBURIDE] : reported Neu = ?
12.8

// Neu lookup, key: O=C1NC(=O)C(c2ccccc2)(c2ccccc2)N1
13.4
